- Measurement description: protein stability index of a GFP-peptide fusion (yeast GPS) (PSI 1-4); higher = more stable; sorted into four equal gates, so the index is relative within each strain
- Conditions used: ubr1∆
Property measured: protein stability index

Seq	Obs value
NLQPISTPENVPRLFDL [SMC4]	2.48
PDLNIDRNNSTNQIFQS [SIN4]	2.19
SFNESQRGEDDLTFKLA [RPO21]	1.09
VQELLKVLNEISKTTLT [RPN3]	3.39
ELDSKTRKILEILNECH [MED4]	3.21
TINEMMKHLGRSEGNPV [FAS2]	2.94
GALIHKAGLMTGGISGD [SMC1]	2.75
DTKLRLEKSKNECQRLQ [YIL149C/MLP2]	2.87
STPNFGGNSNKSPPQFF [SIN4]	2.9
QTQQDLPKVRYNVEKVK [NSL1]	2.33
DASTPLRSTENGIVDQV [RPB2]	3.47
GRDTTDYLKNIIVENSG [RPN2]	3.4
KVESQETLNDTIERSLI [YCS4]	2.97
SPYERRLIDLIRNSGEK [RPL36A]	1.89
ETLVLSYFSPINSSNEA [YCG1]	2.13
YAVAEQCPVKSAEDQLY [QCR2]	3.34
QQQQQFRHHVQIQQQQQ [SNF5]	1.32
ENGTHNDEVNEDEEDDN [YCG1]	3.49
EPLSDTEEPDLAIADVE [DSN1]	3.24
DPLLAGLGETSGDNHTQ [RPT4]	3.25
LGDMAVCFNNLVDENTD [YCS4]	2.85
SPKPYAVKYGLNHVVSL [RPL8B]	1.94
KPSRTSRQVQKRPRSRT [RPS7A]	1.95
LDDPVLNAIVSKNSPAE [YJR042W/NUP85]	2.01
APSDFSENQRQIFCVFS [GRR1]	2.65
NGWEKYLHNVELGEKKN [ISW2]	2.56
QRARDQDSIDISIKDNK [GAL11]	3.13
STSSGKVSYAVKKPQKS [SNM1]	3.02
LFPNELYNVMGINKKKL [RPC31]	3.5
PLLSNYASKINRAEGPE [RGR1]	2.55
RPDLIKEDHPLEFYKDK [SIR3]	3.08
NPLAKTMADAVRELGIL [SEC65]	1.84
GLTLSTTNLDIDLLTFQ [RPP1]	2.86
GVYSDDELLSQLDLCKL [SRP68]	3.15
NRTKSTTIKNIDILNRT [SMC4]	2.53
FSQKANKTKAVDNTVPS [YOR098C/NUP1]	2.17
GYMQKPVYATIGVETGS [PRP28]	1.77
SKDLRSVWKPIAAIIGR [IRR1]	2.58
DRVKVIECFKPGDIVRA [CSL4]	2.36
DPSRELNVIIDQLAVSP [YCS4]	2.67
LSEIESLDEILLPANLL [SRP68]	3.04
YPREEEEDYNEFNSIDR [PRP8]	3.27
LSFIQVRIDLGTIDKLQ [RPO31]	2.67
EDGRTLSDYNIQKESTL [RPS31]	3.01
TEHSKVTRFDEKQIEEL [SRB6]	3.26
PNFLIMQGKITKVLNMK [SMC2]	2.88
PVLDNPFTNEAHMWPRV [POP3]	3.27
NSESDSKSDSDSEERDP [ITC1]	3.22
IPMDFIRNVLVTVDQYV [SSN2]	1.63
LLQEGGSLSGNSSSMEE [ESC2]	2.64
ICYDVNDWQMLEMLKPC [RPB2]	2.61
IRLANESSELNKDSIEE [CSN12]	3.37
ILIESRIHRLARYYRTV [RPS13]	2.1
NQTNINSLAVRGKDCTV [SCL1]	3.19
SNNELVRTNTLTKAAIV [RPS8A]	3.02
KRSGHRTAPKSDNVYLK [RPL18A]	2.61
EELILPNTKDAMSLYHS [PRP8]	2.8
DGMYSESKLSLETLFNR [FAS2]	3.33
KNDDNSCRNPEHTDVID [YIL149C/MLP2]	2.97
LEWNMANLLFKKEKLKQ [RPC82]	1.37
ADRNDDDEGSFAQENSE [SRB6]	3.22
